What inhibition was measured for each of the following?
Target: COUP transcription factor 2 (Homo sapiens) (UniProt P24468)
Sequence (P24468 whole entry, looked up): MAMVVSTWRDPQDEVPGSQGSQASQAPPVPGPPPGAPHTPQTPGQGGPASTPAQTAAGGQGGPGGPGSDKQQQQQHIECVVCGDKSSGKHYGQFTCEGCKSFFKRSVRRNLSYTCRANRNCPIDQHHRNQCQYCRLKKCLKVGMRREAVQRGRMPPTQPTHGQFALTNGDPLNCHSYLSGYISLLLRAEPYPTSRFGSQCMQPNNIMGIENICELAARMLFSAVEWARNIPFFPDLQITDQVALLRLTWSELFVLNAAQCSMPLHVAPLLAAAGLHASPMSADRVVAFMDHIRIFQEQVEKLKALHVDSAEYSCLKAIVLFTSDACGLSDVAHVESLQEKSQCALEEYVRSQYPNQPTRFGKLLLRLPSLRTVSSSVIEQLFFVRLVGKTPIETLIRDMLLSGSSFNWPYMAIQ
Assay: COUP-TFII reporter suppression in human cells – cell-based, luciferase reporter, HEK293T, luminescence, primary screen (AID 686940);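 also: cells cotransfected with COUP-TFII expression vector driving the NGFI-A reporter; 0% = median of COUP-TF2 test wells and 100% = reporter-only cells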
Settings: HEK293T NGFI-A luciferase reporter, at 8.6 µM, hits give high values
About 2,600 (0.7%) of roughly 370,000 compounds were called active. For the sample, actives were picked, then their nearest neighbours and some compounds at random.
Report only the number, with the unit % understood.

Q: Param readout= inhibition; system= COUP transcription factor 2 (Homo sapiens) (UniProt P24468); entry= "C[C@@H]1C[C@@H]2O[C@H]2/C=C\C=C\C(=O)Cc2c(Cl)c(O)cc(O)c2C(=O)O1" ; returns value.
Result: 61.7

Q: Param readout= inhibition; system= COUP transcription factor 2 (Homo sapiens) (UniProt P24468); entry= O=C1Nc2ccccc2OC1CC(=O)N1CCCCCCC1 (stereo not given) ; returns value.
Result: 18.8

Q: Param readout= inhibition; system= COUP transcription factor 2 (Homo sapiens) (UniProt P24468); entry= CCCOC1CCCN(C(=O)c2cc(COc3cncc(Cl)c3)on2)C1 (stereo not given) ; returns value.
Result: -19.1

Q: Param readout= inhibition; system= COUP transcription factor 2 (Homo sapiens) (UniProt P24468); entry= "Cc1c(C)c2cc3c4c(oc3c(C)c2oc1=O)CCCC4" ; returns value.
Result: -4.7

Q: Param readout= inhibition; system= COUP transcription factor 2 (Homo sapiens) (UniProt P24468); entry= CCOC(=O)C1C(=O)C=C(c2ccc(OC)cc2)CC1c1ccco1 (stereo not given) ; returns value.
Result: -3.88

Q: Param readout= inhibition; system= COUP transcription factor 2 (Homo sapiens) (UniProt P24468); entry= COCC1CCCCN1C(=O)c1cc(COc2ccc(C)c(C)c2)on1 (stereo not given) ; returns value.
Result: -30

Q: Param readout= inhibition; system= COUP transcription factor 2 (Homo sapiens) (UniProt P24468); entry= "CCOC(=O)C1(CCOc2ccccc2)CCN(Cc2cc(OC)cc(OC)c2)CC1" ; returns value.
Result: 43.4

Q: Param readout= inhibition; system= COUP transcription factor 2 (Homo sapiens) (UniProt P24468); entry= CCCCCN1CCCCC(NC(=O)C(C)CCC)C1=O (stereo not given) ; returns value.
Result: 4.97

Q: Param readout= inhibition; system= COUP transcription factor 2 (Homo sapiens) (UniProt P24468); entry= "CN(C(=O)c1cccc(NC(=O)Cc2cccc([N+](=O)[O-])c2)c1)C1CCCCC1" ; returns value.
Result: 38.2

Q: Param readout= inhibition; system= COUP transcription factor 2 (Homo sapiens) (UniProt P24468); entry= "CN(C(=O)c1cccc(NC(=O)Cc2ccc(NC(=O)C3CCN(C(=O)C4CCCCC4)CC3)cc2)c1)C1CCC1" ; returns value.
Result: -2.15
